System: S. aureus VRSA
Experiment: MIC, broth microdilution, vancomycin-resistant S. aureus (VRSA)
Format: cell-based, Staphylococcus aureus
Settings: VRSA; ratio of MIC of vancomycin and MIC of analogue
quantity-kind: MIC-fold improvement vs. vancomycin
Keep it simple and answer with nothing but the number.

So what does the record say about MIC-fold improvement vs. vancomycin for CNC(CC(C)C)C(=O)NC1C(=O)NC(CC(N)=O)C(=O)NC2C(=O)NC3C(=O)NC(C(=O)NC(C(=O)NCCCNC(=O)c4ccc(-c5ccccc5)cc4)c4cc(O)cc(O)c4-c4cc3ccc4O)C(O)c3ccc(c(Cl)c3)Oc3cc2cc(c3OC2OC(CO)C(O)C(O)C2OC2CC(C)(N)C(O)C(C)O2)Oc2ccc(cc2Cl)C1O (centres unmarked) ?
128

So what does the record say about MIC-fold improvement vs. vancomycin for CN[C@H](CC(C)C)C(=O)N[C@H]1C(=O)N[C@@H](CC(N)=O)C(=O)N[C@H]2C(=O)N[C@H]3C(=O)N[C@H](C(=O)N[C@H](C(=O)NCC(=O)Nc4cc(C)ccc4O)c4cc(O)cc(O)c4-c4cc3ccc4O)[C@H](O)c3ccc(c(Cl)c3)Oc3cc2cc(c3O[C@@H]2O[C@H](CO)[C@@H](O)[C@H](O)[C@H]2O[C@H]2C[C@](C)(N)[C@H](O)[C@H](C)O2)Oc2ccc(cc2Cl)[C@H]1O ?
4
